Reported emission maximum values for the following compounds.
assay: solvent given as SMILES; conditions: in Cc1ccccc1

{"RECORD SMILES": "c1ccc2c(c1)c1ccccc1n2-c1ccc2cc(-c3ccc(-c4ccc(-c5cc6ccc(-n7c8ccccc8c8ccccc87)cc6o5)cc4)cc3)oc2c1", "UNIT NAME": "nm", "emission maximum": 419}
{"RECORD SMILES": "CCC1(CC)c2cc(N(c3ccccc3)c3ccccc3)ccc2-c2c1c1c(c3c2C(CC)(CC)c2cc(N(c4ccccc4)c4ccccc4)ccc2-3)C(CC)(CC)c2cc(N(c3ccccc3)c3ccccc3)ccc2-1", "UNIT NAME": "nm", "emission maximum": 386}
{"RECORD SMILES": "COc1ccc(-c2nc(-c3ccc(OC)cc3C)nc(-c3ccc(N4c5ccccc5C5(c6ccccc6-c6ccccc65)c5ccccc54)cc3C)n2)c(C)c1", "UNIT NAME": "nm", "emission maximum": 467}
{"RECORD SMILES": "Cc1cc(C)c(B(c2c(C)cc(C)cc2C)c2c(C)cc(-n3c4ccc(N(c5ccccc5)c5ccccc5)cc4c4cc(N(c5ccccc5)c5ccccc5)ccc43)cc2C)c(C)c1", "UNIT NAME": "nm", "emission maximum": 495}
{"RECORD SMILES": "COc1cc(N(c2ccccc2)c2ccc(C=C(C#N)C#N)c(OC)c2)ccc1C=C(C#N)C#N", "UNIT NAME": "nm", "emission maximum": 500}
{"RECORD SMILES": "CC1=[N+]2C(=C(c3ccc(C#N)cc3)c3ccc(C)n3[B-]2(F)F)C=C1", "UNIT NAME": "nm", "emission maximum": 543}
{"RECORD SMILES": "CC(C)(C)c1ccc2c(c1)c1cc(C(C)(C)C)ccc1n2-c1ccc(C#Cc2ccc(C#Cc3ccc(-n4c5ccc(C(C)(C)C)cc5c5cc(C(C)(C)C)ccc54)cc3)cc2)cc1", "UNIT NAME": "nm", "emission maximum": 400}

---

assay: solvent given as SMILES; details: in ClCCl
molecules and their reported emission maximum

{"RECORD SMILES": "CCCCCCCCCCCCOc1cc2cc(N(C)C)ccc2cc1C=O", "emission maximum, nm": 469}
{"RECORD SMILES": "COc1ccc(/C=C/C2=CC(/C=C/c3ccc(OC)c4ccccc34)=[O+][B-](F)(F)O2)c2ccccc12", "emission maximum, nm": 616}
{"RECORD SMILES": "CC1=c2c3c4cccc5cccc(c=3c(C)[n+]2[B-](F)(F)n2c(C)c3cc6c(-c7ccccc7)c7c(c(-c8ccccc8)c6cc3c21)-c1cccc2cccc-7c12)c54", "emission maximum, nm": 695}
{"RECORD SMILES": "CCN(CC)c1ccc(-c2cc3c(s2)c(C(=O)OC)cc(=O)n3C)cc1", "emission maximum, nm": 562}

---

experiment: solvent given as SMILES; conditions: in ClC(Cl)Cl

{"COMPOUND": "CCCCN1C(=O)c2c(Br)c(Br)c3c4c(Br)c(Br)c5c6c(c(Br)c(Br)c(c7c(Br)c(Br)c(c2c37)C1=O)c64)C(=O)N(CCCC)C5=O", "UNIT NAME": "nm", "emission maximum": 600}
{"COMPOUND": "COc1cc(N(c2ccccc2)c2ccc(C=C(C#N)C#N)c(OC)c2)ccc1C=C(C#N)C#N", "UNIT NAME": "nm", "emission maximum": 524}
{"COMPOUND": "CN(C)c1ccc(-c2nc(-c3ccccc3)n3ccccc23)cc1", "UNIT NAME": "nm", "emission maximum": 524}
{"COMPOUND": "COc1ccc(-c2cc3c(o2)=CC2=C(C(F)(F)F)c4cc5oc(-c6ccc(OC)cc6)cc5n4[B-](F)(F)[N+]=32)cc1", "UNIT NAME": "nm", "emission maximum": 738}
{"COMPOUND": "CN1C(=CC2=C([O-])C(=Cc3oc4ccccc4[n+]3C)C2=O)C(C)(C)c2ccccc21", "UNIT NAME": "nm", "emission maximum": 619}
{"COMPOUND": "F[B-]1(F)n2c(-c3ccccc3)cnc2-c2cccc[n+]21", "UNIT NAME": "nm", "emission maximum": 501}
{"COMPOUND": "CCCCC1(c2ccccc2)Nc2c(-c3ccc(N(C)c4ccccc4)cc3)ccc(-c3ccc(N(C)c4ccccc4)cc3)c2N=C1c1ccccc1 (stereo not drawn)", "UNIT NAME": "nm", "emission maximum": 589}
{"COMPOUND": "COc1ccc(C(=O)/C=C/c2ccc(N(C)C)cc2)cc1OC", "UNIT NAME": "nm", "emission maximum": 507}

---

experiment: solvent given as SMILES; conditions: in CCCCCC
Threshold check on emission maximum: at or above 500 nm gives YES, strictly below gives NO.

{"RECORD SMILES": "O=Cc1cc(C=O)c2ccc3c(N4CCCCC4)cc(N4CCCCC4)c4ccc1c2c43", "CAT": "YES"}
{"RECORD SMILES": "CC1=CC(C)=[N+]2C1=Cc1c3ccccc3c(C#Cc3ccsc3)n1[B-]2(F)F", "CAT": "YES"}
{"RECORD SMILES": "Cc1cc(N(C)C)cc(C)c1/C=C/C=C/c1ccc(C#N)cc1", "CAT": "NO"}
{"RECORD SMILES": "O=C1OC(=O)c2ccc(N(c3ccccc3)c3ccc4ccccc4c3)c3cccc1c23", "CAT": "YES"}
{"RECORD SMILES": "CCCCCCCCCCCCOc1cc2cc(N(C)C)ccc2cc1C=O", "CAT": "NO"}
{"RECORD SMILES": "CCC1(CC)c2cc(N(c3ccccc3)c3ccccc3)ccc2-c2c1c1c(c3c2C(CC)(CC)c2cc(N(c4ccccc4)c4ccccc4)ccc2-3)C(CC)(CC)c2cc(N(c3ccccc3)c3ccccc3)ccc2-1", "CAT": "NO"}

---

assay: solvent given as SMILES; settings: in CO
MEASUREMENT LABEL: emission maximum (nm)

{"COMPOUND": "CC1(C)C(/C=C/C=C/C=C/C=C2/N(CCC(=O)O)c3ccc4ccccc4c3C2(C)C)=[N+](CCC(=O)O)c2ccc3ccccc3c21", "VALUE": 817}
{"COMPOUND": "CN1CCN(CCCN2c3ccccc3Sc3ccc(C(F)(F)F)cc32)CC1", "VALUE": 467}
{"COMPOUND": "Cc1cc(C)c(B(c2cc(-c3ccccc3)sc2-c2sc(-c3ccccc3)cc2P(=O)(c2ccccc2)c2ccccc2)c2c(C)cc(C)cc2C)c(C)c1", "VALUE": 558}
{"COMPOUND": "Cc1cc(C)n2c1C=C1c3ccccc3C(c3cccn3C)=[N+]1[B-]2(F)F", "VALUE": 605}
{"COMPOUND": "Cc1ccc2ccc3c(C)ccc4ccc1c2c43", "VALUE": 381}
{"COMPOUND": "CN(C)c1ccc(/C=C/c2cc[n+](CCCCC[n+]3ccc(/C=C/c4ccc(N(C)C)cc4)cc3)cc2)cc1", "VALUE": 600}
{"COMPOUND": "COc1ccc(C(=O)/C=C/c2ccc(N(C)C)cc2)cc1OC", "VALUE": 535}
{"COMPOUND": "CC(C)(C)c1ccc2ccc3c(C(C)(C)C)ccc4ccc1c2c43", "VALUE": 379}
{"COMPOUND": "CCOC(=O)CCCCCn1c2ccccc2c(=O)c2cc3c(cc21)c(=O)c1ccccc1n3CC", "VALUE": 550}
{"COMPOUND": "Cc1ccc(C(=O)/C=C2\\C(=O)Nc3ccccc32)cc1C", "VALUE": 399}
{"COMPOUND": "CCCCCCCCCCCCCCCCN(CCCCCCCCCCCCCCCC)c1ccc(/C=C/c2cc[n+](Cc3cc(C[n+]4ccc(/C=C/c5ccc(N(CCCCCCCCCCCCCCCC)CCCCCCCCCCCCCCCC)cc5)cc4)cc(C[n+]4ccc(/C=C/c5ccc(N(CCCCCCCCCCCCCCCC)CCCCCCCCCCCCCCCC)cc5)cc4)c3)cc2)cc1", "VALUE": 624}
{"COMPOUND": "COC1=[N+]2C(=C(c3ccccc3)c3ccc(OC)n3[B-]2(F)F)C=C1", "VALUE": 620}
{"COMPOUND": "CC(=O)Nc1ccc(/C=C2\\OC(=O)c3cc(N)ccc32)cc1", "VALUE": 490.2}
{"COMPOUND": "CN(C)c1ccc(-c2nc(-c3ccccc3)c3ccccn23)cc1", "VALUE": 500}
{"COMPOUND": "Oc1ccc(-c2nc(-c3ccccc3)c(-c3ccccc3)[nH]2)cc1", "VALUE": 400}
{"COMPOUND": "COC(=O)C(NC(=O)OC(C)(C)C)c1ccc2oc(-c3ccc(O)cc3O)nc2c1 (configuration not stated)", "VALUE": 365}
{"COMPOUND": "O=C1CC(c2cccc([N+](=O)[O-])c2)c2c(c3ccccc3c3nc4ccccc4nc23)O1 (configuration not stated)", "VALUE": 452}
{"COMPOUND": "NS(=O)(=O)c1ccc(N2N=C(c3ccc(O)cc3)CC2c2ccc(Br)cc2)cc1 (configuration not stated)", "VALUE": 432}
{"COMPOUND": "CCN(CC)c1ccc(C2=C3C(C)=CC(/C=C/c4ccc(OCCCN=[N+]=[N-])cc4)=[N+]3[B-](F)(F)n3c(C)cc(C)c32)cc1", "VALUE": 587}
{"COMPOUND": "C#CCNC1=C2C(C)=CC(C)=[N+]2[B-](F)(F)n2c(C)cc(C)c21", "VALUE": 496}
{"COMPOUND": "COc1cc(-c2nc3c4cccnc4c4ncccc4c3[nH]2)c(OC)cc1/C=C/c1nc2ccccc2[nH]1", "VALUE": 461}
{"COMPOUND": "O=c1oc2ccccc2c(O)c1C(CC(O)c1ccc(-c2ccc(Br)cc2)cc1)c1ccccc1 (configuration not stated)", "VALUE": 394}
{"COMPOUND": "COc1ccc(OC)c(C(=O)O)c1", "VALUE": 388}
{"COMPOUND": "CC1(C)Nc2ccccc2-c2[nH]c3ccccc3c(=O)c21", "VALUE": 531}
{"COMPOUND": "CC1(C)C(/C=C/C2=C(Cl)C(=C/C=C3/N(Cc4ccc(C(=O)O)cc4)c4ccccc4C3(C)C)/CCC2)=[N+](Cc2ccc(C(=O)O)cc2)c2ccccc21", "VALUE": 814}
{"COMPOUND": "O=C1c2ccccc2NC(c2ccccc2)N1Cc1ccccc1 (configuration not stated)", "VALUE": 442}
{"COMPOUND": "CN(C)c1ccc(/C=C/C(=O)O)cc1", "VALUE": 453}
{"COMPOUND": "c1ccc2cc(-n3cnc4ccccc43)ccc2c1", "VALUE": 377}
{"COMPOUND": "N#Cc1ccc(C[C@H](N)C(=O)O)cc1", "VALUE": 292.44}
{"COMPOUND": "O=C(O)CCCc1cc2ccc3cccc4ccc(c1)c2c34", "VALUE": 374}
{"COMPOUND": "Cn1c(=O)c(/N=N/c2ccc(Nc3ccc([N+](=O)[O-])cc3S(=O)(=O)O)cc2)c(O)c2ccccc21", "VALUE": 619}
{"COMPOUND": "Cc1c2ccncc2c(C)c2c1[nH]c1ccccc12", "VALUE": 434}
{"COMPOUND": "CN(C)c1ccc(/C=C/c2cc[n+](Cc3cc(C[n+]4ccc(/C=C/c5ccc(N(C)C)cc5)cc4)cc(C[n+]4ccc(/C=C/c5ccc(N(C)C)cc5)cc4)c3)cc2)cc1", "VALUE": 618}
{"COMPOUND": "Cc1ccc(-c2cc(-c3ccc(N(C)C)cc3)c3c(N)nc(N4CCCC4)c(C#N)c3n2)cc1", "VALUE": 517}
{"COMPOUND": "CC1(C)CC(NCc2ccc3ccc4cccc5ccc2c3c45)CC(C)(C)N1", "VALUE": 375}
{"COMPOUND": "CCOC(=O)COc1ccccc1C(c1c(C)[nH]c2ccccc12)c1c(C)[nH]c2ccccc12", "VALUE": 349}
{"COMPOUND": "Cc1ccc(C2=C3C=CC(c4ccccc4)=[N+]3[B-](F)(F)n3c(Cl)ccc32)cc1", "VALUE": 549}
